Molecular target: SARS-COV-2 RBD extracellular domain expressed with a C-terminal mouse IgG2a Fc (SARS-CoV-2)
Assay: Biacore SPR, mAb captured on anti-hFc, 25 C
I'd appreciate it if you could supply pKd values for the items below.
To interpret pKd, take it as minus log10 of a concentration measured in moles per litre.

Lookup result for mAb15165 (antibody, V domains shown) VH: EVQLVESGGGLVQPGGSLRLSCAASGFTVSSNYMSWVRQAPGKGLEWVSAIYSGDSTYYADSVKGRFTISKDNSKNTLYLQMNSLRGEDTAVYYCARLGGALQAYDGAFDYWGQGTLATVSS VL: QSALTQPASVSGSPGQSITISCTGTSSDFGSYNLVSWYQQHPGKAPKLMIYEGNKRPSGVSIRFSGSKSGNTASLTISGLQAEDEADYYCSSYAGSSTWVFGGGTKLTVLG ; measured pKd: 9.89

Lookup result for mAb14235 (antibody, V domains shown) VH: QITLKESGPTLVKPTQTLTLTCTFSGFSLNTGGVGVGWIRQPPGNALEWLALIYWDDDKRYNPSLKTRLTISKDTSKNQVVLTMTNMDPVDTATYFCAHLTIAVIVDFWGQGTLVTVSS VL: QSALTQPASVSGSPGQSITISCTATSSDVGTYNYVSWFQHHPGKAPKLMIYEVTNRPSGVSNRFSGSKSGNTASLTISGLQAEDEADYYCSSYTTTSIVFGGGTKLTVLG ; measured pKd: 10.20

Lookup result for mAb15162 (antibody, V domains shown) VH: EVQLVETGGGLIQPGGSLRLSCAASEFIVSRNYMSWVRQAPGKGLEWVSLIYSGGSTYYADSVKGRFTISRDNSKNILYLQMNSLRAEDTAVYYCARDRGGISDYWGQGTLVTVSS VL: DIQMTQSPSSLSASVGDRVTITCQASQDINKYLNWFQQKPGKAPKLLIYDASNLETGVPSRFSGSGSGTDFTFTISSLQPEDIATYYCQQYDNLPRTFGQGTKLEIKR ; measured pKd: 9.75

Where do the numbers come from? From patent US20260069689A1.
